System: TO-N3-2 (biotin conjugate)
TEST PROTOCOL: pull-down binding Z-score (relative to library population); higher = stronger binding
EXPERIMENTAL CONTEXT: RNA library: Library-2
Attribute: pull-down binding Z-score
The response must contain the number and no unit.

Answered cases to consult:
# pull-down binding Z-score of CCUUGUGAAUGUCGGGCAAUGG [hsa-mir-4701] = 0.503

# pull-down binding Z-score of AACACCAGUUUACUCAUUCUUACCUGGUGUU = -1.46

# pull-down binding Z-score of GUACUUAAUGAGAAGUGC [SHAPE_invivo_SARS-CoV-2_Motif_56] = -0.836

# pull-down binding Z-score of CUGUUUGGAUGACAG = -1.01

# pull-down binding Z-score of GUACCUCAAGCUGAUGUAGAAUGGAAGUUCUAUGAUGCACAGCCUUGUAGUGAC [SHAPE_invitro_SARS-CoV-2_Motif_348] = 0.735

# pull-down binding Z-score of UUGUUACAUUUUAGGAUUGCUUGCCCCUUGCUCCAAUGGUGCAGGCAGAAGAAAUGCAAACAA [hsa-mir-3973] = 1.25

# pull-down binding Z-score of GAUGUAAUUAUCUUGGCAAACCACGCGAACAAAUAGAUGGUUAUGUC [DMSMaPseq_invitro_SARS-CoV-2_Motif_374] = -0.828

# pull-down binding Z-score of AUGCUGUUACAGCGU = -1.07

Consider the additional sequence presented here.
# pull-down binding Z-score of GGGGUUUUUGCCUCCAACUGACUCC [hsa-mir-155] = -0.135

###

Tested on: TO-3-N3 (biotin conjugate)
TEST PROTOCOL: pull-down binding Z-score (relative to library population); higher = stronger binding
EXPERIMENTAL CONTEXT: RNA library: Library-2
Rule: t for pull-down binding Z-score not less than -0.5, f for anything less.

Would you please look over these solved cases?
q: Does pull-down binding Z-score meet or surpass -0.5 for GUUCUUGUAUGUGAGAAC [IAV_invivo_PA_3_Motif_23+IAV_invivo_PA_3_Motif_23] ?
a: f

q: Does pull-down binding Z-score meet or surpass -0.5 for GGUAAUUAUACAGUUUCCUGUUUACC [DMSMaPseq_invitro_SARS-CoV-2_Motif_504] ?
a: f

q: Does pull-down binding Z-score meet or surpass -0.5 for GAUCCGGGAACCCACAGCCCCGUUC [hsa-mir-6783] ?
a: t

q: Does pull-down binding Z-score meet or surpass -0.5 for CAGUGGCAGAUUUUCCCAUAG [hsa-mir-4727] ?
a: f

q: Does pull-down binding Z-score meet or surpass -0.5 for UCCCAGUUUUGGGG [IAV_invivo_PB1_2_Motif_27+IAV_invivo_PB1_2_Motif_27] ?
a: f

***
q: Does pull-down binding Z-score meet or surpass -0.5 for CUUGUGGUAUUAGUCCGCACAAG [hsa-mir-100] ?
a: t

q: Does pull-down binding Z-score meet or surpass -0.5 for GCUGGCCUUGAAGCCCCUUUUCUCUAUCUUUAUGCUUUAGUCUACUUCUUGCAGAGUAUAAACUUUGUAAGAAUAAUAAUGAGGCUUUGGCUUUGC ?
a: f

q: Does pull-down binding Z-score meet or surpass -0.5 for UUCUUGUACGAGUCUGCGGCCAACCGAGAA [hsa-mir-219a-2] ?
a: t

q: Does pull-down binding Z-score meet or surpass -0.5 for UUUGUCAUUACUUUAAUUACUUUACGUUUCAUUAAUGACAAA [hsa-mir-548h-4] ?
a: f

q: Does pull-down binding Z-score meet or surpass -0.5 for ACCAUUUAAUGAUGGU [DMSMaPseq_invitro_SARS-CoV-2_Motif_383] ?
a: f

q: Does pull-down binding Z-score meet or surpass -0.5 for AUGGAGAACGCCCCCACCAGUUCCCAC [hsa-mir-6767] ?
a: t
